Origin of the recorded values: the RNAGym collection of RNA variant scans (doi:10.7554/elife.80360)

B1: Hairpin Ribozyme (parent)
chain: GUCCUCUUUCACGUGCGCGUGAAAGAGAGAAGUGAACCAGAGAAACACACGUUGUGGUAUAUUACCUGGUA

# Variants of: B1
# ASSAY OVERVIEW: self-cleavage, relative activity (ratio to wild type); higher = more cleavage; co-transcriptional
OUTCOME MEASURE: self-cleavage
Write the value as a bare number.

Solved cases below.
1) C4A G15U: 0.182
2) A31C U70C: 0.0987
3) U5A A23U: 0.323

self-cleavage lookup needed for C12G U33A , thanks. 0.0646

Query G21U C38G next 0.167

Query U55G G69C next 0.257

Query A35G G69A next 0.204

Query U9A G17C next 0.261

Query U33C A64U next 0.154
